Data provenance is patent US20110105397A1.

test-description: Nonclinical pharmacokinetics in rats
Design: species or system rat
condition: female, in vivo; rat IV infusion 3 hours, F, 167 ng/kg/min
result-type: AUC(0-inf) (ng·h/mL)
Numbers only here, please. The scale is ng·h/mL.

Entry H-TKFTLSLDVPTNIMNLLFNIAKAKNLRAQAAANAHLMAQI-NH2 [SEQ ID NO: 1] — recorded AUC(0-inf) = 1.15

----------
test-description: Human pharmacokinetics, heart failure subjects, 7.5-hour continuous ascending dose IV infusion
condition: in vivo, infusion rate 3/18/54 ng/kg/min, mean, N = 2, read-out: CL (converted)
result-type: clearance (mL/min/kg)
Numbers only here, please. The scale is mL/min/kg.

Entry H-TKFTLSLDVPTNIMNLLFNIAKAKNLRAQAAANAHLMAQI-NH2 [SEQ ID NO: 1] — recorded clearance = 7.67
